tested on: SK-OV-3; assay: NCI tumour cell line growth inhibition, 48 h
The source made the active and inactive calls. Cut-off read from the data, not from the text of the source: active = GI50 up to about 1.1 µM and inactive = higher.
MEASUREMENT_LABEL: GI50

- Cc1c[nH]c(C(=O)O)c1-c1cccn1-c1ccc(Cl)cc1[N+](=O)[O-]: > 100 µM (inactive)
- COc1ccc2c(c1)-c1oc3ccccc3c(=O)c1CO2: 35.4 µM (inactive)
- O=C1Nc2ccccc2C1S(=O)(=O)c1ccccc1 (stereo unspecified): > 100 µM (inactive)
- CC(=N/NC(=S)N1CCCCC1)/C(=N\NC(=S)N1CCCCC1)c1ccccc1: 1.95 µM (inactive)
- Oc1c2ccccc2c2c3c(cccc13)N=N2: 21 µM (inactive)
- O=C(/C=C/c1ccc(OCCSCCCCCCCCCCSCCOc2ccc(/C=C/C(=O)c3ccc(Cl)cc3)cc2)cc1)c1ccc(Cl)cc1: 65.5 µM (inactive)
- Clc1ccc(OC2CCO2)cc1Cl (stereo unspecified): > 100 µM (inactive)
- c1ccc2c(c1)nnn2CNc1ccc(N2CCCCC2)cc1: > 100 µM (inactive)
- COc1ccc(/C=C2\Sc3nnc(-c4ccccc4)n3N=C2c2cc(F)c(Cl)cc2Cl)cc1OC: > 100 µM (inactive)
- O=C(CCCN1CCC2(CC1)CC(=O)N(N1CCCCCC1)C2=O)c1ccc(F)cc1: 91.6 µM (inactive)
- O=P(O)(O)CC1OC(CO)C(O)C1O (stereo unspecified): > 100 µM (inactive)
